System: SNB-19 CNS
Assay: NCI tumour cell line growth inhibition, 48 h
The compounds listed here are annotated with their GI50.

Answered cases to consult:
CC(=O)OCC1OC(OC2=C(CC=C(Cl)Cl)C(=O)c3ccccc3C2=O)C(OC(C)=O)C(OC(C)=O)C1OC(C)=O (centres undefined) = 11.8 µM
COC(=O)Nc1nc2cc3c(cc2s1)OCCO3 = > 50 µM
COc1ccc(Cc2cnc(NC(=O)c3sc4ccccc4c3Cl)s2)cc1 = 0.461 µM

Query string: Please look up its GI50: CC1=C([Se]CC(OC(=O)[C@@H](CO)NC(=O)OC(C)(C)C)C(=O)NC(C)(C)C)C(=O)c2ccccc2C1=O (some centres undefined)
Result string: 0.66 µM

Query string: Need GI50 of "C=C(C)[C@@H]1CCC2=C[C@@H](OC2=O)[C@@H](C(=C)C)C(=O)/C=C(/C)C(=O)C1" , thanks.
Result string: 33.8 µM

Query string: Returns the measured GI50 for the input compound. Input: "O=C1C(Cl)=C(Nc2cccc(O)c2)C(=O)N1c1ccc(Cl)c(Cl)c1"
Result string: 36 µM

Query string: Given the entry "CC[CH2][Sn]([Cl])([Cl])[CH2]CC" , report its measured GI50.
Result string: 13.2 µM

Query string: What GI50 value was documented for this compound, "Clc1ccc(-c2nn3ncccc3c2-c2ccnc(Nc3ccccc3)n2)cc1" ?
Result string: > 14.4 µM

Query string: What does the data say about its GI50? Entry: "COc1ccc(-c2nn(-c3cccc(NC(=O)Nc4cc(C(F)(F)F)cc(C(F)(F)F)c4)c3)cc2-c2ccncc2)cc1Cl"
Result string: 1.62 µM

---

System: PC-3 prostate
Experiment: NCI tumour cell line growth inhibition, 48 h
endpoint_label: TGI (µM)
Only the number, expressed in µM, is required.

Some solved cases for reference:
CNC(C)C(=O)N[C@H](C(=O)N1CCC[C@@H]1CN(CCc1ccccc1)C(=O)C(F)(F)F)[C@H](C)OCC#CC#CCO[C@H](C)[C@H](NC(=O)[C@H](C)NC)C(=O)N1CCC[C@H]1CN(CCc1ccccc1)C(=O)C(F)(F)F (some centres undefined) = 3.23
O=C(OCC12CC3CC(CC(C3)C1)C2)c1ccc(NCc2cc(O)ccc2O)cc1 = 4.88
CN(C)CCNC(=O)c1cccc2nc3cccc(F)c3nc12 = 4.26

Now turn to the next compound.
Query string: Return reported TGI; argument: "CN(C)CCN=Cc1c2ccccc2c(=O)n2c1oc1ccccc12"
Result string: 29.9

---

System: U251 CNS
Assay: NCI tumour cell line growth inhibition, 48 h; in the data active means GI50 below about 0.43 µM; inactive means the rest
Thanks in advance; please answer with one of these: y (active), n (inactive)

COc1ccc(Cc2cnc(NC(=O)c3sc4ccccc4c3Cl)s2)cc1 = y

Query string: Returns: the outcome recorded for "COc1ccc(/C=C\c2cc(OC)c(OC)c(OC)c2)cc1OC(=O)c1cccc(Cn2cc(CCOC(=O)c3cccc(Cn4nnc5c4C(=O)c4ccccc4C5=O)c3)nn2)c1" in this assay.
Result string: y

Query string: Outcome logged for "Nc1ccccc1NC(=O)c1ccc(CN2CCC/C(=C\c3cccc(Cl)c3)C2=O)cc1" in this assay:
Result string: y

Query string: Can you look up the reported call for "COc1cc2c3c(n(CCN(C)C)c(=O)c2cc1OC)-c1cc2c(cc1C3=O)OCO2" for me?
Result string: n

Where do these numbers come from? They come from PubChem BioAssay (NCI).
